Every entry's value here was drawn from the supplement of paper PMC8882468.

system: HCI-019 (organoid from a triple-negative breast cancer xenograft); assay: CTG-3D luminescence at 96 h relative to day-0 seeding control (ratio to day 0); higher = more growth / less cytotoxicity; PDxO 3D drug screen, 96 h, CTG-3D normalised to day-0 seeding control.; conditions: 1 µM; days in culture: 110

{"smiles repr": "Cc1cc(Nc2ncc(Cl)c(Nc3ccccc3S(=O)(=O)C(C)C)n2)c(OC(C)C)cc1C1CCNCC1", "target or system": "HCI-019", "CTG-3D luminescence at 96 h": 1.78}
{"smiles repr": "O=C(/C=C/c1cccnc1)NCCCCC1CCN(C(=O)c2ccccc2)CC1", "target or system": "HCI-019", "CTG-3D luminescence at 96 h": 0.0484}
{"smiles repr": "C[C@@H]1COCCN1c1cc(C2([S@](C)(=N)=O)CC2)nc(-c2cc[nH]c3nccc2-3)n1", "target or system": "HCI-019", "CTG-3D luminescence at 96 h": 0.748}
{"smiles repr": "Nc1ccn([C@@H]2O[C@H](CO)[C@@H](O)C2(F)F)c(=O)n1", "target or system": "HCI-019", "CTG-3D luminescence at 96 h": 0.241}
